Tested on: MS2 coat protein
Assay: apparent KD of MS2 coat protein; designed switch direction (-1 OFF switch, 1 ON switch): 1; higher = weaker reporter binding
Settings: Eterna round: R95; input ligand: none
Returns Criterion met if the recorded apparent KD of MS2 coat protein is greater than or equal to 500 nM, and Criterion not met otherwise.

>>> classification("GAAAAGGCGACGCAGGAUAUGAAAGGUGAAACAUGAGGAUCACCCAUGUGCUACCUUCCGAUAAAUCAGAAGGGCGACGCCAAGC [Soleusat] (puzzle: Same State 2)")
"Criterion not met"
>>> classification("AGUCUACGGUGACGUAGACAGUGGUGCGUACAUGAGGAUCACCCAUGUCAUGUGAGAGUUACUUGUUCGUCUUGAGC [SENSOR #4] (puzzle: Sensor for hsa-mir-208a)")
"Criterion not met"
>>> classification("AAGAGACAUGAGGAUCACCCAUGUUUGAAUAAUAUAGGAUAUAUACCACAUGUAAAAGAAAUAGAAGGAUAAGAAA [Default title] (puzzle: Same State 1)")
"Criterion met"
>>> classification("AAGUUACUAUCUCAGGAUAUCAUGUCAAAGACAUGAGGAUCACCCAUGUACCAGGAAACUGGUUAUGAGAAGGGAGAUAGUAACG [Mat - Same State 2 - Mod - D53] (puzzle: Same State 2)")
"Criterion not met"
